Sourced from the supplement of paper PMC10567573

# Measurement Protocol: protein stability index of a GFP-peptide fusion (GPS, HEK-293T) (PSI 1-6); higher = more stable;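 also: 24-mer peptide tiles fused after GFP, lentivirally expressed, FACS-sorted into six equal bins by GFP/DsRed ratio, decoded by Illumina sequencing, PSI is the read-weighted mean bin number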
# Measurement Parameters: treatment: MLN4924 1 uM, 8 h; c terminus: a fixed tail appended
Short version: protein stability index at least 3 is MET, less is NOT MET.

Input: # check: protein stability index of SVSSCDQEHQSALEEAKQPKNDNV [SMOC2] is greater than or equal to 3
Output: MET

Input: # check: protein stability index of LLRDQFVKALEDFEDLCDRVFSDE [FAM9B] is greater than or equal to 3
Output: MET

Input: # check: protein stability index of SGLGYIAGSKVKDMAGDWHWALRV [SPNS1] is greater than or equal to 3
Output: NOT MET

Input: # check: protein stability index of HISNQKMPTGPPEDRLSLKFLPSS [DRICH1] is greater than or equal to 3
Output: MET

Input: # check: protein stability index of YAFVGDYSGQITLLKLEQNTCSVI [WDFY1] is greater than or equal to 3
Output: NOT MET

Input: # check: protein stability index of KKIYCRICMAQIAYSGNTSNLSYH [ZBED1] is greater than or equal to 3
Output: NOT MET

Input: # check: protein stability index of PRLTMHYPCLEKPRIWSLAHTATA [IRX6] is greater than or equal to 3
Output: NOT MET

Input: # check: protein stability index of SHHHHQSRGACTSHDPQSSRGSRR [KCNA4] is greater than or equal to 3
Output: MET

Input: # check: protein stability index of TASSLVKINLQGDIVDRGSTNLGV [ADD1] is greater than or equal to 3
Output: MET

Input: # check: protein stability index of SLSLFGCTNIFYEEENPGGCEDEY [ZER1] is greater than or equal to 3
Output: MET

Could you now consider this next sequence?
Input: # check: protein stability index of TGESSEPEAKVLHTKRLYRAVVEA [SMG5] is greater than or equal to 3
Output: MET

###

# Measurement Protocol: protein stability index of a GFP-peptide fusion (GPS, HEK-293T) (PSI 1-6); higher = more stable
# Measurement Parameters: treatment: MLN4924 1 uM, 8 h; c terminus: a fixed tail appended
Short version: protein stability index at least 3 is Y, less is N.

Reference set, count: 3
Input: # check: protein stability index of ASFDRRGEYIYTGNAKGKILVLKT [RBBP5] is greater than or equal to 3
Output: N

Input: # check: protein stability index of QPWMVIEGIRQTEYTLTGLKFDMK [FSD1] is greater than or equal to 3
Output: N

Input: # check: protein stability index of PLLSASVTGHTNIVDFLTHHAQTS [FEM1C] is greater than or equal to 3
Output: Y

More entries:
Input: # check: protein stability index of LDLSSSSQMSPLSLYGENSNSLSS [ATF6] is greater than or equal to 3
Output: Y

Input: # check: protein stability index of YYAKRNALRAAEVWMDDFKSHVYM [GALNT9] is greater than or equal to 3
Output: N

###

# Measurement Protocol: protein stability index of a GFP-peptide fusion (GPS, HEK-293T) (PSI 1-6); higher = more stable
# Measurement Parameters: treatment: DMSO; c terminus: a fixed tail appended
Recorded Endpoint: protein stability index
Give the figure by itself; no unit, no explanation.

The reported protein stability index of the sequence LVPILIEAARNGKMKFVIGNGKNL [NSDHL] was 2.52

The reported protein stability index of the sequence PVCYQCLEEGKHSSHEVKALGAMW [TRIM9] was 2.64

The reported protein stability index of the sequence VISCTIFIVGMVGNATLLRIIYQN [EDNRA] was 3.11

The reported protein stability index of the sequence TYNTKVYKMFASRRKQRYWPFSMD [LOXL2] was 2.32

The reported protein stability index of the sequence AAPRTLAAHPPLPLLPPAMGTEPA [TBX6] was 4.61

###

# Measurement Protocol: protein stability index of a GFP-peptide fusion (GPS, HEK-293T) (PSI 1-6); higher = more stable
# Measurement Parameters: treatment: MLN4924 1 uM, 8 h; c terminus: a fixed tail appended
Short version: protein stability index at least 3 is condition met, less is condition not met.

Input: # check: protein stability index of RGCSVKIWTAHYDPGHCFAESREL [ALG2] is greater than or equal to 3
Output: condition not met

Input: # check: protein stability index of GKEQSRRDDLEALGHMFMYFLRGS [CSNK1G3] is greater than or equal to 3
Output: condition not met

Input: # check: protein stability index of VEADINGLRRVLDELTLARTDLEM [KRT15] is greater than or equal to 3
Output: condition met

Input: # check: protein stability index of LPYQRRYRERRDSDTYRCEERSPS [CLK3] is greater than or equal to 3
Output: condition met

Input: # check: protein stability index of RPWRAGVLAEGDNASRSLYPDAED [PSD2] is greater than or equal to 3
Output: condition met

Input: # check: protein stability index of EAFRLKQQLHARYVLNLLYETKKH [PPEF2] is greater than or equal to 3
Output: condition not met

Input: # check: protein stability index of GDTPIRKKEELLFDDGDDIMATLG [FBF1] is greater than or equal to 3
Output: condition met

Input: # check: protein stability index of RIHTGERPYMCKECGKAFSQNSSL [ZNF8] is greater than or equal to 3
Output: condition met

Input: # check: protein stability index of FKKGNRYIRCQKEVGKSFERHKLK [SMG5] is greater than or equal to 3
Output: condition not met

Input: # check: protein stability index of PGGGAGMAAGFPYALRAYLGYQAV [CEBPB] is greater than or equal to 3
Output: condition not met

###

This section presents sequences with their documented protein stability index values.
# Measurement Protocol: protein stability index of a GFP-peptide fusion (GPS, HEK-293T) (PSI 1-6); higher = more stable
# Measurement Parameters: treatment: DMSO; c terminus: a fixed tail appended
Give the figure by itself; no unit, no explanation.

The reported protein stability index of the sequence MRVGPVRSAMSGASQPRGPALLFP [TRIB1] was 3.48

The reported protein stability index of the sequence NRVFSLQDLCCRAIVSCTPVHLID [RAB40C] was 2.53

The reported protein stability index of the sequence KRFDESMQVFAKLGTDPTHVMGLY [VPS39] was 2.38

The reported protein stability index of the sequence QPWMVIEGIRQTEYTLTGLKFDMK [FSD1] was 2.29

The reported protein stability index of the sequence MEGQRQESHATLTLAQAHFNNGEY [TTC32] was 4.42

Moving on to another sequence below.
The reported protein stability index of the sequence VDREKGLSAEPGWQAKREEEEEEE [CHGA] was 5.36

###

This section presents sequences with their documented protein stability index values.
# Measurement Protocol: protein stability index of a GFP-peptide fusion (GPS, HEK-293T) (PSI 1-6); higher = more stable
# Measurement Parameters: treatment: MLN4924 1 uM, 8 h; c terminus: a fixed tail appended
Give the figure by itself; no unit, no explanation.

Use the examples below as a reference point.
The reported protein stability index of the sequence RESRGSTRGKRESESRGSSGRVKR [USP39] was 5.24

The reported protein stability index of the sequence PQTHSNRIYRMIKLGLGIDEDEVA [HSP90AB1] was 3.49

The reported protein stability index of the sequence DNVRSLKVESGAWIGYEHTSFCGQ [CRYBA1] was 3.07

The reported protein stability index of the sequence DGAPALCPSPEALSPEPPVYSLQD [PRKX] was 5.21

The reported protein stability index of the sequence DKEGYNSIHYAAAYGHRQCLELVS [ANKRD44] was 2.59

More entries:
The reported protein stability index of the sequence MVVKTFMDMDQDSEEEKELYLNLA [PDS5B] was 3

The reported protein stability index of the sequence SITVSKVDKDQPSILNSCEDPVPG [FBXO34] was 5.25

The reported protein stability index of the sequence LLRFGVPSPSTLEPHPRPLLQREL [TNXB] was 2.93

The reported protein stability index of the sequence QVHDDDLLSSSEEECKDRERPMYG [EMD] was 5.41

The reported protein stability index of the sequence LLPLRTKVAKLLGYSTHADFVLEM [NLN] was 2.32

###

# Measurement Protocol: protein stability index of a GFP-peptide fusion (GPS, HEK-293T) (PSI 1-6); higher = more stable
# Measurement Parameters: treatment: MLN4924 1 uM, 8 h; c terminus: a fixed tail appended
Short version: protein stability index at least 3 is Criterion met, less is Criterion not met.

Input: # check: protein stability index of VIVKEGGLKLIQIQDNGTGIRKED [MLH1] is greater than or equal to 3
Output: Criterion met

Input: # check: protein stability index of ILRKLPQQREKLSLIRKHAQTFIA [CCND2] is greater than or equal to 3
Output: Criterion not met

Input: # check: protein stability index of NGATDDSKTNLIVNYLPQNMTQDE [ELAVL3] is greater than or equal to 3
Output: Criterion met

Input: # check: protein stability index of LPVDDDSDLNVVASFDRRGEYIYT [RBBP5] is greater than or equal to 3
Output: Criterion met

Input: # check: protein stability index of GSPVNQQPKKNNVMARTRLVVPNK [FAM219A] is greater than or equal to 3
Output: Criterion met

More entries:
Input: # check: protein stability index of "LRKQLQPTHCKYEGPRKARRLWFA" is greater than or equal to 3
Output: Criterion not met

Input: # check: protein stability index of IDSRARRNLGSINTELQDVQRIMV [SEC22B] is greater than or equal to 3
Output: Criterion not met

Input: # check: protein stability index of FNGDFVDRGKDSVEILMILFAFML [PPEF2] is greater than or equal to 3
Output: Criterion not met

Input: # check: protein stability index of MAKSVKYTVNFLEAKEGDLHRIEI [CARM1] is greater than or equal to 3
Output: Criterion not met

Input: # check: protein stability index of VHRRGEYNVYSTFQSHEPEFDYLK [PPP2R2B] is greater than or equal to 3
Output: Criterion not met

Input: # check: protein stability index of SLLDELLEVDHIRTIYHMFIALLI [SOAT1] is greater than or equal to 3
Output: Criterion not met
